- Tested On: T1, TIGIT on TIGIT-over expressing NFAT-Luc/Jurkat effector cells (GenScript reporter cell line) (UniProt Q495A1 22-244, limits assumed)
- T1 sequence (looked up): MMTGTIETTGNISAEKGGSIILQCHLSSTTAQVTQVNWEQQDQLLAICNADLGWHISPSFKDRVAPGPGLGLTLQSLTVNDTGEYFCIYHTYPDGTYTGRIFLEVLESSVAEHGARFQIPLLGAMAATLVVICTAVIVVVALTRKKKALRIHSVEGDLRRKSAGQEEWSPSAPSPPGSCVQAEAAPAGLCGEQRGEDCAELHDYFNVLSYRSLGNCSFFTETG
- Assay Remarks: cell-based or functional assay
# Bottom (RLU) per entry
Express the result in RLU but write the number alone.

Binder | Bottom (RLU)
TIGIT-3 chimeric antibody (antibody, human IgG1, kappa, V domains shown, also called 3VH + 3VL) VH: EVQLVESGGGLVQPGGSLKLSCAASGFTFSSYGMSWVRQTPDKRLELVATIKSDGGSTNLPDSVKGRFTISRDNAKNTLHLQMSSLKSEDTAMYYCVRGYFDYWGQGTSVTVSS VL: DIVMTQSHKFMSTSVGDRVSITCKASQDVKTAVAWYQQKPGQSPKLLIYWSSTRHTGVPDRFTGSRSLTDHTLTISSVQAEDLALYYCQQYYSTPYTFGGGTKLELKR | 55800
huTIGIT-6-2 (antibody, human IgG1, kappa, V domains shown, Humanized IgG; also called 6VH6.M5 + 6VL1.M1) VH: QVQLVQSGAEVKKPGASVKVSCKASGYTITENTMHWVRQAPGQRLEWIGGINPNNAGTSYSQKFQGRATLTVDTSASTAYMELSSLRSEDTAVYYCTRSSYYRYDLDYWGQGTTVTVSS VL: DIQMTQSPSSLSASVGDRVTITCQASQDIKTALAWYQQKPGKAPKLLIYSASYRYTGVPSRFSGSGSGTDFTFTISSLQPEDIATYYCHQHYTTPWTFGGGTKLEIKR | 49800
huTIGIT-6-1 (antibody, human IgG1, kappa, V domains shown, Humanized IgG; also called 6VH6.M4 + 6VL1.M1) VH: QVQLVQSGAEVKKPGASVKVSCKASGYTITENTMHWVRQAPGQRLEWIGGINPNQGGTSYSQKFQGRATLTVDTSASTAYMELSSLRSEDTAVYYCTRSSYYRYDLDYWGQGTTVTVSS VL: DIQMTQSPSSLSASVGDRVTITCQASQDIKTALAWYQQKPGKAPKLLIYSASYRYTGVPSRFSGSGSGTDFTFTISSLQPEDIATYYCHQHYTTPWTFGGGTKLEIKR | 51200
huTIGIT-19-1 (antibody, human IgG1, kappa, V domains shown, Humanized IgG; also called 19VH4.M9 + 19VL1.M4) VH: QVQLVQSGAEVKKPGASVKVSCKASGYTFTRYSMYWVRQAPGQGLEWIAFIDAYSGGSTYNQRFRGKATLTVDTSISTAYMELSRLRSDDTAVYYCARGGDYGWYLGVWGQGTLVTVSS VL: DIQMTQSPSSLSASVGDRVTITCRPSENIYTYLSWYQQKPGKAPKLLIYNAKSLPSGVPSRFSGSGSGTDFTLTISSLQPEDFATYYCQHHYGNPLTFGQGTKVEIKR | 53900

Please examine the following record next.
Note to self: Bottom (RLU) recorded for huTIGIT-6-4 (antibody, human IgG1, kappa, V domains shown, Humanized IgG; also called 6VH6.M7 + 6VL1.M1) VH: QVQLVQSGAEVKKPGASVKVSCKASGYTFTENAMHWVRQAPGQRLEWIGGINPNNAGTSYSQKFQGRATLTVDTSASTAYMELSSLRSEDTAVYYCTRSSYYRYDLDYWGQGTTVTVSS VL: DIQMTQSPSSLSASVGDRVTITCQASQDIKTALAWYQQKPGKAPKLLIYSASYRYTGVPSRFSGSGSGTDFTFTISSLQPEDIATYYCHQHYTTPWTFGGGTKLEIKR was 46800
